# Target or system: CYP3A4 (Homo sapiens)
# Assay info: Inhibition of CYP3A4 at 10 uM using testosterone as substrate
# Type: ADME
# Cond: probe testosterone
Endpoint name: inhibition at 10 µM (%)

Some compounds with recorded inhibition at 10 µM:
| Structure notation | inhibition at 10 µM / % |
| --- | --- |
| CN(C)CCNCC(=O)Nc1cc(CSc2ncccc2C(=O)Nc2ccc(OC(F)(F)F)cc2)ccn1 | 29 |
| O=C(CO)Nc1cc(CSc2ncccc2C(=O)Nc2ccc(OC(F)(F)F)cc2)ccn1 | 17 |
| Cc1cc(C)cc(NC(=O)c2cccnc2SCc2ccnc(Cl)c2)c1 | 60 |

1. Cc1cc(C)cc(NC(=O)c2cccnc2SCc2ccnc(NC(=O)CN)c2)c1
2. CC(=O)Nc1cc(CSc2ncccc2C(=O)Nc2ccc(OC(F)(F)F)cc2)ccn1
Q: Two entries are listed, 1 and 2 . Which one carries the higher inhibition at 10 µM? Select an item and report its label.
Ans: 2

###

# Test system: B16
# Assay info: Antitumor activity against mouse B16 cells xenografted in C57BL/6N mouse assessed as tumor growth at 100 mg/kg, po qd for 10 days relative to control
# Format: functional
# Cond: B16, 240 h
Endpoint name: inhibition in vivo at 100 mg/kg (%)
Form entry: value (%) — number only.

Q: Returns the measured inhibition in vivo at 100 mg/kg for the input compound. Input: CNC(=O)Nc1cc(CSc2ncccc2C(=O)Nc2cc(C)cc(C)c2)ccn1
Ans: 43

###

# Target or system: CYP3A4 (Homo sapiens, UniProt P08684)
# Sequence (P08684 whole entry): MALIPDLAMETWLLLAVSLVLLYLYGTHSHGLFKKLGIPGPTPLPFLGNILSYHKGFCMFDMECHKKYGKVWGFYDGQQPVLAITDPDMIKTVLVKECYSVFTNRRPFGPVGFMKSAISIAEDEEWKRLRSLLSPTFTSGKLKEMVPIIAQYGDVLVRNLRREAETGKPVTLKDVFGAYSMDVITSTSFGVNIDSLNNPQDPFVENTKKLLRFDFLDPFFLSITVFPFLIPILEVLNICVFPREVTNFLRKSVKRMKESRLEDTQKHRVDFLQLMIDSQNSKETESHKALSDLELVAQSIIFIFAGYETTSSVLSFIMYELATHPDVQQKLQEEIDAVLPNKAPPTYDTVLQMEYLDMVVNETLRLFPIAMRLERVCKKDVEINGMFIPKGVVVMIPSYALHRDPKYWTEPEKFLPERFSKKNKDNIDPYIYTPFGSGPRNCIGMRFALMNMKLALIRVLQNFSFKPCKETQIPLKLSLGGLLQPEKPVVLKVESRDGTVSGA
# Assay info: Inhibition of CYP3A4 at 10 uM using testosterone as substrate
# Format: ADME
# Cond: probe testosterone
Endpoint name: inhibition at 10 µM (%)

Some molecules with recorded inhibition at 10 µM:
| Structure notation | Target or system | Endpoint name | Reading |
| --- | --- | --- | --- |
| Cc1cc(C)cc(NC(=O)c2cccnc2SCc2cc[n+]([O-])cc2)c1 | CYP3A4 (Homo sapiens, UniProt P08684) | inhibition at 10 µM | 16 |
| O=C(CNCCCO)Nc1cc(CSc2ncccc2C(=O)Nc2ccc(OC(F)(F)F)cc2)ccn1 | CYP3A4 (Homo sapiens, UniProt P08684) | inhibition at 10 µM | 33 |

A. Cc1cc(C)cc(NC(=O)c2cccnc2SCc2ccncc2)c1
B. CNC(=O)Nc1cc(CSc2ncccc2C(=O)Nc2cc(C)cc(C)c2)ccn1
C. Cc1cc(C)cc(NC(=O)c2cccnc2SCc2ccnc(C#N)c2)c1
D. Cc1cc(C)cc(NC(=O)c2cccnc2SCc2ccnc(NC(=O)CNCCN(C)C)c2)c1
Q: Ascending by inhibition at 10 µM, please: list the molecules accordingly. Your task in answering is to list the labels in the requested order.
Ans: D, B, C, A

###

Catalogue of compounds with associated inhibition in vivo at 100 mg/kg
# Tested on: B16
# Assay info: Antitumor activity against mouse B16 cells xenografted in C57BL/6N mouse assessed as tumor growth at 100 mg/kg, po qd for 10 days relative to control
# Type: functional
# Cond: B16, 240 h
Form entry: value (%) — number only.

Some compounds with recorded inhibition in vivo at 100 mg/kg:
| Structure notation | Target or system | inhibition in vivo at 100 mg/kg, % |
| --- | --- | --- |
| CN(C)CCNCC(=O)Nc1cc(CSc2ncccc2C(=O)Nc2ccc(OC(F)(F)F)cc2)ccn1 | B16 | 79 |
| Cc1cc(C)cc(NC(=O)c2cccnc2SCc2ccnc(NC(=O)CNCCN(C)C)c2)c1 | B16 | 83 |
| O=C(CO)Nc1cc(CSc2ncccc2C(=O)Nc2ccc(OC(F)(F)F)cc2)ccn1 | B16 | 85 |
| Cc1cc(C)cc(NC(=O)c2cccnc2SCc2ccnc(NC(=O)CNCCCO)c2)c1 | B16 | 77 |
| O=C(CNCCCO)Nc1cc(CSc2ncccc2C(=O)Nc2ccc(OC(F)(F)F)cc2)ccn1 | B16 | 79 |

Now consider a different compound.
Q: What value of inhibition in vivo at 100 mg/kg on B16 does Cc1cc(C)cc(NC(=O)c2cccnc2SCc2cc[n+]([O-])cc2)c1 have?
Ans: 76
